Target: Androgen receptor/PELP1 (Homo sapiens, UniProt P10275+Q8IZL8)
Sequence (P10275 whole entry): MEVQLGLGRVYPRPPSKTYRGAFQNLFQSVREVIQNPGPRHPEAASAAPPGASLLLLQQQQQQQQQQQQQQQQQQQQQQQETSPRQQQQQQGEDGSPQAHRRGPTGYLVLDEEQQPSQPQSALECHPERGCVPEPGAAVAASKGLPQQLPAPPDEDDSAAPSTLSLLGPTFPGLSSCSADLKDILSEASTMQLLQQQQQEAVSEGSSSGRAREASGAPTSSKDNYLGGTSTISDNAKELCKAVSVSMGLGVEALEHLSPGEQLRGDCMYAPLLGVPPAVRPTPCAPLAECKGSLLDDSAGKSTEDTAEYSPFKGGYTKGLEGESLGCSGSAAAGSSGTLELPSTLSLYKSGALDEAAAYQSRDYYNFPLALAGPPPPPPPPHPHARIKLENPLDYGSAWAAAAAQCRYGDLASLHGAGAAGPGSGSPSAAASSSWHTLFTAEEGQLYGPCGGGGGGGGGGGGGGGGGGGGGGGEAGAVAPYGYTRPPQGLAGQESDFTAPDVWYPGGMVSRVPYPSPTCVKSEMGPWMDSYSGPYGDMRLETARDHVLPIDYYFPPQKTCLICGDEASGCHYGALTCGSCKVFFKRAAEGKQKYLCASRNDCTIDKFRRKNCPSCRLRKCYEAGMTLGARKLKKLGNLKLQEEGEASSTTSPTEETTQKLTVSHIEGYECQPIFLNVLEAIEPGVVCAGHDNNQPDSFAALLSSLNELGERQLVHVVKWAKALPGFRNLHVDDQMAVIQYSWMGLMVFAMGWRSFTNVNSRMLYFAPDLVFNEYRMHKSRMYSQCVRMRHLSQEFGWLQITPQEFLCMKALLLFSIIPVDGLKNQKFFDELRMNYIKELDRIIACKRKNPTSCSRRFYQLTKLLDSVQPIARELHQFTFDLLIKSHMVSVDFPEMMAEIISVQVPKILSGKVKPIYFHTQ
Sequence (Q8IZL8 whole entry): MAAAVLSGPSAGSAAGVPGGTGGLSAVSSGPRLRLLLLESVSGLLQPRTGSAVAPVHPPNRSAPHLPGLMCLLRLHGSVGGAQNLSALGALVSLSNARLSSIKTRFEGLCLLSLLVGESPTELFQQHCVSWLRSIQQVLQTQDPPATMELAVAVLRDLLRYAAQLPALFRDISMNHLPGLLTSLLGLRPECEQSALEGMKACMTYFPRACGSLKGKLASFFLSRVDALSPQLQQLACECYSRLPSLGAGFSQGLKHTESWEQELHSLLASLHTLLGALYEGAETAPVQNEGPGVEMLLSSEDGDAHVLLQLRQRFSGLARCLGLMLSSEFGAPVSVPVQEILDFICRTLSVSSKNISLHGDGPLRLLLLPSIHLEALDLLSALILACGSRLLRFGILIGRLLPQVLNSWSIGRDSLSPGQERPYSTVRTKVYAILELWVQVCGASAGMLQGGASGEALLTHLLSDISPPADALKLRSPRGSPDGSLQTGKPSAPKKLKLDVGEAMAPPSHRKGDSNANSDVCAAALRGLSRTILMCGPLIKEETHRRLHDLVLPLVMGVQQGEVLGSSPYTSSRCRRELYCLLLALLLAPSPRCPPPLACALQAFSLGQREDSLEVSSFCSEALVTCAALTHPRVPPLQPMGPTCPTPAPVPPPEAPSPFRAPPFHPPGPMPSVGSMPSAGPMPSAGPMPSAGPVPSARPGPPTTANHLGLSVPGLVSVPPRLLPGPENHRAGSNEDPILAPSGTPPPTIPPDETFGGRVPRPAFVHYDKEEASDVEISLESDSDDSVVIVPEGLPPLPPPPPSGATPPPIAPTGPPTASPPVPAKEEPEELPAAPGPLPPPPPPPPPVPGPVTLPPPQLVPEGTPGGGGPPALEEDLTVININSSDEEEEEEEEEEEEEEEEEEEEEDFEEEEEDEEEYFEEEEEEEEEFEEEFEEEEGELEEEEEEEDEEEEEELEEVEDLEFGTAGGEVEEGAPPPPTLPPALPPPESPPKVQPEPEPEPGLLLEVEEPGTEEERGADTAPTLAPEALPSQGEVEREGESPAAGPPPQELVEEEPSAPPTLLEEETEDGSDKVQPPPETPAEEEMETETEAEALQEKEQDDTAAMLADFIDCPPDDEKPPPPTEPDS
Assay: Inhibition of full length AR/PELP1 (unknown origin) interaction expressed in human LNCaP cells preincubated for 2 hrs followed by DHT addition measured after 24 hrs by Western blot analysis
Readout name: IC50 (nM)
Numeric only. Scale: nM

Q) What value of IC50 has been recorded for this entry: `COC(=O)c1ccc(NC(=O)c2ccc([N+](=O)[O-])c(OCC(C)C)c2)c(OCC(C)C)c1`
A) 40

----------
Biological target: Retinoic acid receptor RXR-alpha (Homo sapiens, UniProt P19793)
Sequence (P19793 whole entry): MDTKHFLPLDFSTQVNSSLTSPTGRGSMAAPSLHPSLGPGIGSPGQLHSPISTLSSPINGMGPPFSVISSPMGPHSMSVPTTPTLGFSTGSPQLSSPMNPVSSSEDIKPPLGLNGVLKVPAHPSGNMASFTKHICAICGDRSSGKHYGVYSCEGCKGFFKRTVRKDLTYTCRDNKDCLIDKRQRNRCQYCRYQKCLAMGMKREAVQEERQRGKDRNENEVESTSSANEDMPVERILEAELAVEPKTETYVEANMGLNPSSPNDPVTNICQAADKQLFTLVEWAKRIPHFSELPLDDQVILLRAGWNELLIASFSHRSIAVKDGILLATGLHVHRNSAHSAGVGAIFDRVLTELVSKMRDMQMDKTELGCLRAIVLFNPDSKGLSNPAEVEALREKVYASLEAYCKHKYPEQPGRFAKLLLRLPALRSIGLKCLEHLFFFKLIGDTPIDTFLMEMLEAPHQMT
Readout name: IC50
Returns: string containing the number followed by the unit.

Q) What value of IC50 has been recorded for this entry: `CC1=C(CCc2nnn[nH]2)c2cc(F)ccc2/C1=C\c1ccc(C(C)C)cc1`
A) 10 µM

----------
Biological target: Estrogen receptor (Homo sapiens)
Sequence (P03372 whole entry, the tested form may be a part): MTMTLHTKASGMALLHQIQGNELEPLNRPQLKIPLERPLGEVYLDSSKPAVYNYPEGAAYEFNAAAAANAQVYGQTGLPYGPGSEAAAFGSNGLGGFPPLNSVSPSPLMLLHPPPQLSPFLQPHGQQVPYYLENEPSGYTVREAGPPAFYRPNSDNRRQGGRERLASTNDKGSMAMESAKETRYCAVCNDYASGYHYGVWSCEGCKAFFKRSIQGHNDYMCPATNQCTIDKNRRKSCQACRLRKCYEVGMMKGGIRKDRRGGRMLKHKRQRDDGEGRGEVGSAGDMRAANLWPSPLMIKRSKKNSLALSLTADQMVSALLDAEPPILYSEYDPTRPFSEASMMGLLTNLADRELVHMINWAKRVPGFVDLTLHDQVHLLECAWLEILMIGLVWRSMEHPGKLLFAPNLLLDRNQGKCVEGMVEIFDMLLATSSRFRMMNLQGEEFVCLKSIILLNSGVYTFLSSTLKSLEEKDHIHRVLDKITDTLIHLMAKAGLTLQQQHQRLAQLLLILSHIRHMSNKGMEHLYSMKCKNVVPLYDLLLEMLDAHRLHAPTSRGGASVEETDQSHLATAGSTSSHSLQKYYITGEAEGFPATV
Experiment: Displacement of fluorescein-labeled PGC1alpha peptide from human GST-tagged ERalpha LBD after 2 hrs in presence of estradiol-beta by TR-FRET assay
Readout name: IC50
Returns: string containing the number followed by the unit.

Q) What value of IC50 has been recorded for this entry: `CCOc1cc(Br)cc(CNNC(=O)c2ccc3c(c2)OCCO3)c1O`
A) 2.98 µM

Q) Same read-out for O=C1NN(c2ccc(Cl)c(Cl)c2)C(=O)C1Cc1c[nH]c2ccccc12 (configuration not stated) ?
A) 2.46 µM
